# Assay Name: Clearance in Guinea pig at 2 mg/kg, iv
# Format: ADME, organism-based, Cavia porcellus
# Set-up: dose 2 mg/kg, route intravenous
# Particulars: in vivo
Measure Name: clearance (mL/min/kg)
Supply the numeric figure in mL/min/kg, leaving out any unit text.

Input: I'd like to know its clearance. The compound in question is Cc1cc(S(=O)(=O)N[C@@H](C(=O)NO)C2CCOCC2)ccc1F
Output: 24

* * *

# Assay Name: Volume of distribution in Sprague-Dawley rat at 1 mg/kg, iv
# Assay type: ADME, organism-based
# Parameters: dose 1 mg/kg, route intravenous
# Particulars: in vivo, read-out: Vdss
Measure Name: Vd (L/kg)
Lab book: enter the figure in L/kg, no units written.

Input: Requested field: Vd. Item: Cc1cc(S(=O)(=O)N[C@@H](C(=O)NO)C2CCOCC2)ccc1F
Output: 3.9

Data provenance is ChEMBL document CHEMBL1138106.
